# pIC50 values compiled below
target: DGAT1 (Homo sapiens); assay: Inhibition of human DGAT1 assessed as conversion of [14C]-oleoyl-CoA to [14C]-triglyceride after 10 mins by scintillation counting
pIC50: −log10 of the molar value.
value type: pIC50

CC(C)[C@H](NC(=O)c1ncc(-c2ccc(NC(=O)Nc3cccc(C(F)(F)F)c3)cc2)o1)C(=O)O : 6.34
CC(C)[C@H](NC(=O)c1ncc(-c2ccc(NC(=O)Nc3ccc(Cl)cc3Oc3ccccc3)cc2)o1)C(=O)O : 6.64
CC(C)[C@H](NC(=O)c1nc(-c2ccc(NC(=O)Nc3ccc(F)cc3F)cc2)no1)C(=O)O : 6.59
CC(C)[C@H](NC(=O)c1cc(-c2ccc(NC(=O)Nc3cc(F)ccc3F)cc2)no1)C(=O)O : 6.85
CC(C)[C@H](NC(=O)c1cc(-c2ccc(NC(=O)Nc3ccc(F)c(F)c3)cc2)no1)C(=O)O : 7.12
CC(C)[C@H](NC(=O)c1cc(-c2ccc(NC(=O)Nc3ccc(Cl)cc3F)cc2)no1)C(=O)O : 7.62
CC(C)[C@H](NC(=O)c1cc(-c2ccc(NC(=O)Nc3ccc(Cl)cc3)cc2)no1)C(=O)O : 6.91
CC(C)[C@H](NC(=O)c1cc(-c2ccc(NC(=O)Nc3cccc(Cl)c3)cc2)no1)C(=O)O : 7.35

###

Reported IC50 values for the following molecules.
target: DGAT1 (Homo sapiens); assay: Inhibition of human DGAT1 assessed as conversion of [14C]-oleoyl-CoA to [14C]-triglyceride after 10 mins by scintillation counting
value type: IC50 (nM)

Cc1cc(C)cc(NC(=O)Nc2ccc(-c3cc(C(=O)N[C@H](C(=O)O)C(C)C)on3)cc2)c1 : 114
Cc1ccc(NC(=O)Nc2ccc(-c3cc(C(=O)N[C@H](C(=O)O)C(C)C)on3)cc2)cc1 : 61
Cc1cc(F)ccc1NC(=O)Nc1ccc(-c2cc(C(=O)N[C@H](C(=O)O)C(C)C)on2)cc1 : 90
CC(C)[C@H](NC(=O)c1cc(-c2ccc(NC(=O)Nc3cccc(C(F)(F)F)c3)cc2)no1)C(=O)O : 66

###

target: DGAT1 (Homo sapiens); assay: Inhibition of human DGAT1 assessed as conversion of [14C]-oleoyl-CoA to [14C]-triglyceride after 10 mins by scintillation counting
value type: IC50 (µM)

CC(C)[C@H](NC(=O)c1cc(-c2ccc(Nc3nc4ccc(F)cc4s3)cc2)no1)C(=O)O : 0.12
Cc1ccc(NC(=O)Nc2ccc(-c3cc(C(=O)N[C@H](C(=O)O)C(C)C)on3)cc2)cc1F : 0.178
CC(C)[C@H](NC(=O)c1cc(-c2ccc(NC(=O)Nc3ccc(Cl)cc3Oc3ccccc3)cc2)no1)C(=O)O : 0.086
CC(C)[C@H](NC(=O)c1ncc(-c2ccc(NC(=O)Nc3ccccc3Cl)cc2)o1)C(=O)O : 0.282
Cc1ccccc1NC(=O)Nc1ccc(-c2cc(C(=O)N[C@H](C(=O)O)C(C)C)on2)cc1 : 0.084
